Exercise: for every item that follows, state its recorded log10(intrinsic clearance, human liver microsomes).
// do not treat as linear: log10 of intrinsic clearance, human liver microsomes, unit mL/min/kg

Query block: State, in one line, measured log10(intrinsic clearance, human liver microsomes) of `CC1(C)[C@@H]2C[C@H]1[C@@]1(O)[C@@H](C2)Oc2c(ccc(O)c2C(=O)NCCNS(C)(=O)=O)[C@@H]1O`
Result block: 1.47

Query block: State, in one line, measured log10(intrinsic clearance, human liver microsomes) of `CCN(C(=O)c1cc(NC(C)=O)ccc1F)C1CCCC1`
Result block: 1.80

Query block: State, in one line, measured log10(intrinsic clearance, human liver microsomes) of `COc1ccc(C)cc1NC(=O)CN1CCc2ccccc2C1`
Result block: 2.28

Query block: State, in one line, measured log10(intrinsic clearance, human liver microsomes) of `Cc1cccc(NC(=O)C(=O)c2c(C)nn(C)c2C)n1`
Result block: 1.29

Query block: State, in one line, measured log10(intrinsic clearance, human liver microsomes) of `O=C(CN1CCCN(c2ccc(C(F)(F)F)cn2)CC1)Nc1ccccc1Cl`
Result block: 2.36

Query block: State, in one line, measured log10(intrinsic clearance, human liver microsomes) of Cc1noc(C(C)C)c1C(=O)N1CC(C)OC(c2ccccc2)C1 (configuration not stated)
Result block: 1.85

Query block: State, in one line, measured log10(intrinsic clearance, human liver microsomes) of `CCN(c1cc(-c2ccc(CN3CCOCC3)cc2)cc(C(=O)NCc2c(C)cc(C)nc2O)c1C)C1CCOCC1`
Result block: 2.12

Query block: State, in one line, measured log10(intrinsic clearance, human liver microsomes) of `O=C(Nc1cccc2ncccc12)[C@H]1CCCN(S(=O)(=O)c2ccccc2)C1`
Result block: 1.58

Query block: State, in one line, measured log10(intrinsic clearance, human liver microsomes) of `CCc1c2c(nc3ccc(O)cc13)-c1cc3c(c(=O)n1C2)COC(=O)[C@]3(O)CC`
Result block: 1.26

Query block: State, in one line, measured log10(intrinsic clearance, human liver microsomes) of `Cc1ccc(C)c(OCCC(=O)N2CCC(n3c(=O)[nH]c4ccccc43)CC2)c1`
Result block: 2.62

Query block: State, in one line, measured log10(intrinsic clearance, human liver microsomes) of `Cc1cc(N(C)C)nc(-n2cnc(C#N)n2)n1`
Result block: 1.53

Query block: State, in one line, measured log10(intrinsic clearance, human liver microsomes) of `COc1ccc(CN(C)C(=O)Nc2ccccc2)cc1F`
Result block: 1.26

Query block: State, in one line, measured log10(intrinsic clearance, human liver microsomes) of `COCc1ncc(CN2CCC(Oc3ccccc3C)CC2)cn1`
Result block: 1.36

Query block: State, in one line, measured log10(intrinsic clearance, human liver microsomes) of `CC(C)c1nc(S(=O)(=O)N2CC3(CC3)c3ccccc32)c[nH]1`
Result block: 2.90

Query block: State, in one line, measured log10(intrinsic clearance, human liver microsomes) of `COc1ccc(CNC(=O)CCCOc2ccc(C(C)=O)cc2)cc1`
Result block: 1.54

Query block: State, in one line, measured log10(intrinsic clearance, human liver microsomes) of `CCC(CC)NC(=O)c1ccc(C#N)c(C)n1`
Result block: 0.79

Query block: State, in one line, measured log10(intrinsic clearance, human liver microsomes) of `COc1cccc(CN(C)c2cc(N3CCCC3)ncn2)n1`
Result block: 2.11

Query block: State, in one line, measured log10(intrinsic clearance, human liver microsomes) of `O=C(Nc1nc2ccccc2[nH]1)C1CCCCC1`
Result block: 1.19

Query block: State, in one line, measured log10(intrinsic clearance, human liver microsomes) of `FC(F)(F)c1nccc(NCCSc2nc3ccccc3o2)n1`
Result block: 2.41

Query block: State, in one line, measured log10(intrinsic clearance, human liver microsomes) of `CC(C)Cc1nn(C)c(=O)c2c(SCCCO)n(Cc3cccc4ccccc34)cc12`
Result block: 2.44

Query block: State, in one line, measured log10(intrinsic clearance, human liver microsomes) of `CCn1nc(Cc2ccc(OC)cc2)nc1Cc1sc(C)nc1C`
Result block: 1.33

Query block: State, in one line, measured log10(intrinsic clearance, human liver microsomes) of `COc1ccc(-c2ccc(CN(CCN3CCOCC3)Cc3cccnc3)cc2)cc1`
Result block: 2.65

Query block: State, in one line, measured log10(intrinsic clearance, human liver microsomes) of `O=C(c1noc2c1CCCC2)N1CCN(c2ncccn2)CC1`
Result block: 1.01

Query block: State, in one line, measured log10(intrinsic clearance, human liver microsomes) of `CCCCOc1ccc(C(=O)NCc2cc(C)on2)cc1`
Result block: 1.07

Query block: State, in one line, measured log10(intrinsic clearance, human liver microsomes) of `Cc1ccc2[nH]c(C3CCN(C)CC3)nc2c1`
Result block: 1.95

Query block: State, in one line, measured log10(intrinsic clearance, human liver microsomes) of `CCn1cc(CN2CCC(c3nc(N(C)C)ncc3-c3ccc(OC)cc3)CC2)c(C)n1`
Result block: 2.20

Query block: State, in one line, measured log10(intrinsic clearance, human liver microsomes) of `Cc1cccc(NC(=O)c2ccccc2-c2ccccc2)n1`
Result block: 1.81

Query block: State, in one line, measured log10(intrinsic clearance, human liver microsomes) of `O=C(Nc1cccc2c(=O)cc(-c3nnn[nH]3)oc12)c1ccc(OCCCCc2ccccc2)cc1`
Result block: 1.32
